target: human GluN1/GluN2B NMDA receptors (Homo sapiens, UniProt Q05586+Q13224); construct: expressed in transfected cells; assay: Cell-based calcium flux (FLIPR) assay on cloned human NR1/NR2B ion channels expressed in mammalian cells (standard and HTS buffer variants); details: standard assay buffer (0.5 mM MgCl2 in dye loading buffer; 137 mM NaCl, 4 mM KCl in assay buffer), human GluN1/GluN2B, read-out: NR2B IC50 (μM) standard assay
Sequence (Q13224 27-1484, other chains not shown): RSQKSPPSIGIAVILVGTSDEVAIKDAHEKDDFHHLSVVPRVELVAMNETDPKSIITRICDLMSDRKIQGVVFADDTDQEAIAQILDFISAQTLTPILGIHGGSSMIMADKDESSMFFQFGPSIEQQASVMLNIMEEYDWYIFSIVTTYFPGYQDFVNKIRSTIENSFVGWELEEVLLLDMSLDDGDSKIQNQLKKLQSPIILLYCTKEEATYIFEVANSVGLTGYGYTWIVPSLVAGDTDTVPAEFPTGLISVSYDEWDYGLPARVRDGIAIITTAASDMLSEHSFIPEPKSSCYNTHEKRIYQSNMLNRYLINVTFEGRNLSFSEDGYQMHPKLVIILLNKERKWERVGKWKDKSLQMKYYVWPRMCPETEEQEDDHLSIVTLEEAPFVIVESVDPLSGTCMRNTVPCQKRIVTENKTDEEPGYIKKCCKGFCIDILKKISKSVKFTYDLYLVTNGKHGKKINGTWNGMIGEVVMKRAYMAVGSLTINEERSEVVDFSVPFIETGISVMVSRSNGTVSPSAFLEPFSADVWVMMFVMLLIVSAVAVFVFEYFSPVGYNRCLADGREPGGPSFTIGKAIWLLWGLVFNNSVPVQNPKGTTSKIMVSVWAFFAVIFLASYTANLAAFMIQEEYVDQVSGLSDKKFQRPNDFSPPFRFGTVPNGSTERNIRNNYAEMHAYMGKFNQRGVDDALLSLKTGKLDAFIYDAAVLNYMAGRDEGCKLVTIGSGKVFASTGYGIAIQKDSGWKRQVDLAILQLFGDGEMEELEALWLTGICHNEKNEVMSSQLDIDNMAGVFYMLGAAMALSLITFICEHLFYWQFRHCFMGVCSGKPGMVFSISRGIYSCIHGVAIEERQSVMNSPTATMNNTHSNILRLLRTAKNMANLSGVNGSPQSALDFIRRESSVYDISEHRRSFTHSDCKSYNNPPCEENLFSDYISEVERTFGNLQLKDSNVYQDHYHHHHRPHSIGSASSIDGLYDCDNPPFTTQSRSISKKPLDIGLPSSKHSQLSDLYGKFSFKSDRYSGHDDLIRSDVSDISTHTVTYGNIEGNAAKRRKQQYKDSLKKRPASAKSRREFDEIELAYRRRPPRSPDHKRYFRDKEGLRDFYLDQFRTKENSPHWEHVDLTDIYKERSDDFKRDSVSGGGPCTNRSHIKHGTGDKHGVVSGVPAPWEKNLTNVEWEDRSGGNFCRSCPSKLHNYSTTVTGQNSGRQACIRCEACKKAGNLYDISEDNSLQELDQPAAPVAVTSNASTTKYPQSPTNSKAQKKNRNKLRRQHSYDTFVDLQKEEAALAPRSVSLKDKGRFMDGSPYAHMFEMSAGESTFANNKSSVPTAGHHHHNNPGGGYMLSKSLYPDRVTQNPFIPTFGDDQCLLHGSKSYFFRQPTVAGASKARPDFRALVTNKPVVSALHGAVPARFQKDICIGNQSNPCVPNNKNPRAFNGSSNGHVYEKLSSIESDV
Threshold 0.3 µM. IC50 below it: Satisfied. IC50 at it or above: Not satisfied.

# COMPOUND, MEASUREMENT_TARGET, GROUP_LABEL
data = [
    ("Cn1c(=O)n(CC2CCO2)c2cc(-c3cccc(C(F)F)c3)cnc21 (racemic) [Example 394]", "human GluN1/GluN2B NMDA receptors (Homo sapiens, UniProt Q05586+Q13224)", "Satisfied"),
    ("COc1ccc(-c2cnc3[nH]c(=O)n(CC(=O)C(C)(C)C)c3c2)cc1F [Example 609]", "human GluN1/GluN2B NMDA receptors (Homo sapiens, UniProt Q05586+Q13224)", "Satisfied"),
    ("CCC(O)Cn1c(=O)[nH]c2ncc(-c3ccc(F)c(C)c3)cc21 (racemic) [Example 334]", "human GluN1/GluN2B NMDA receptors (Homo sapiens, UniProt Q05586+Q13224)", "Satisfied"),
    ("COCCC(O)Cn1c(=O)n(C)c2ncc(-c3ccc(F)c(C)c3)cc21 (racemic) [Example 393]", "human GluN1/GluN2B NMDA receptors (Homo sapiens, UniProt Q05586+Q13224)", "Not satisfied"),
    ("COc1ccc(-c2cnc3[nH]c(=O)n(CC(C)C)c3c2)cc1 [Example 604]", "human GluN1/GluN2B NMDA receptors (Homo sapiens, UniProt Q05586+Q13224)", "Not satisfied"),
    ("CCC(O)Cn1c(=O)[nH]c2ncc(-c3cccc(C)c3)cc21 (racemic) [Example 335]", "human GluN1/GluN2B NMDA receptors (Homo sapiens, UniProt Q05586+Q13224)", "Satisfied"),
    ("Cn1c(=O)n(CC2CCO2)c2cc(-c3cccc(Cl)c3)cnc21 (racemic) [Example 397]", "human GluN1/GluN2B NMDA receptors (Homo sapiens, UniProt Q05586+Q13224)", "Satisfied"),
    ("COc1ccc(-c2cnc3[nH]c(=O)n(CC(=O)C(C)(C)C)c3c2)cc1C [Example 603]", "human GluN1/GluN2B NMDA receptors (Homo sapiens, UniProt Q05586+Q13224)", "Not satisfied"),
]

###

target: human GluN1/GluN2B NMDA receptors (Homo sapiens); construct: expressed in transfected cells; assay: Cell-based calcium flux (FLIPR) assay on cloned human NR1/NR2B ion channels expressed in mammalian cells (standard and HTS buffer variants); settings: standard assay buffer (0.5 mM MgCl2 dye loading; 137 mM NaCl, 4 mM KCl assay buffer), human GluN1/GluN2B cells, read-out: NR2B IC50 (μM) standard assay;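 note: stable Tet-On inducible cell line, Ca2+ influx triggered by glutamate at about EC40 plus 10 µM glycine, fluorescent dye read-out over 5 min, normalized to control wells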
RECORDED_ENDPOINT: IC50 (µM)

# COMPOUND, RECORDED_ENDPOINT, EXPERIMENTAL_RESULT
measured = [
    ("O=c1[nH]c2ncc(-c3cccc(Cl)c3)cc2n1CCN1CCC1", "IC50", 0.201),
    ("Cc1cccc(-c2cnc3[nH]c(=O)n(Cc4cccnc4)c3c2)c1", "IC50", 0.027),
    ("Cn1c(=O)n(CC(=O)N2CCCC2)c2cc(-c3cccc(C(F)(F)F)c3)cnc21", "IC50", 0.205),
    ("Cc1ncc(-c2cnc3c(c2)n(CC(=O)N2CCC2)c(=O)n3C)s1", "IC50", 5.1),
    ("Cn1c(=O)n(CC(=O)N2CC(F)(F)C2)c2cc(-c3cccc(C(F)(F)F)c3)cnc21", "IC50", 0.089),
    ("O=c1[nH]c2ncc(-c3cccc(C(F)(F)F)c3)cc2n1Cc1cncnc1", "IC50", 0.043),
    ("O=c1[nH]c2ncc(-c3cccc(C(F)(F)F)c3)cc2n1CCN1CC(F)(F)C1", "IC50", 0.158),
    ("Cn1c(=O)n(Cc2cnccn2)c2cc(-c3ccc(F)c(F)c3)cnc21", "IC50", 2.3),
    ("CCOC(=O)Cn1c(=O)[nH]c2ncc(-c3cccc(C(F)(F)F)c3)cc21", "IC50", 0.035),
    ("O=C(Cn1c(=O)[nH]c2ncc(-c3cccc(C(F)(F)F)c3)cc21)C1CC1", "IC50", 0.034),
    ("Cc1cncc(Cn2c(=O)[nH]c3ncc(-c4ccc(F)c(C)c4)cc32)c1", "IC50", 0.128),
    ("Cc1cncc(Cn2c(=O)[nH]c3ncc(-c4cccc(F)c4)cc32)c1", "IC50", 0.057),
    ("O=C(Cn1c(=O)[nH]c2ncc(-c3cccc(C(F)(F)F)c3)cc21)N1CCC1", "IC50", 0.07),
    ("Cc1cc(Cn2c(=O)[nH]c3ncc(-c4ccccc4C)cc32)no1", "IC50", 0.038),
    ("CCOC(=O)Cn1c(=O)n(C)c2ncc(-c3cccc(C(F)(F)F)c3)cc21", "IC50", 0.159),
    ("CC1CCN(CCn2c(=O)[nH]c3ncc(-c4cccc(C(F)(F)F)c4)cc32)C1 (stereo not drawn)", "IC50", 1.22),
    ("O=c1[nH]c2ncc(-c3ccc(F)c(F)c3)cc2n1Cc1cccnc1", "IC50", 0.06),
    ("O=c1[nH]c2ncc(-c3cccc(OC(F)F)c3)cc2n1Cc1cccnc1", "IC50", 0.03),
]
